test: Tissue distribution; assay type: in vivo; details: male, albino Wistar, rat, colon, intravenous, 15 mg/kg; rats, 8 h after administration; read-out: Concentration in Colon
readout-label: concentration at 8 h (ng/mL)
Write it as a number; the unit ng/mL goes unstated.

Exercise: I am curious: what concentration at 8 h value has been reported for CNC(=O)c1ccc(N2C(=S)N(c3ccc(C#N)c(C(F)(F)F)c3)C(=O)C2(C)C)cc1F [ENZ, Enzalutamide] ?
Key: 0.95
